Data origin, for the record: patent US9617230B2

Assay: Stability in mouse plasma incubations
Assay type: in vitro ADME
EXPERIMENTAL_READOUT: half-life at 10 μM

Req: Write down half-life at 10 μM measured for item [2H]C([2H])([2H])N(CC(=O)OCCCCCCC)c1nc(=O)o[nH]1 [Compound E]
Resp: > 3 h

====

EXPERIMENTAL_READOUT: melting point

Example entries and their recorded answers appear below.
INSERT INTO measurements (molecule_smiles, experimental_readout, reading) VALUES
  ('[2H]C([2H])([2H])N(CC(=O)OC)c1nc(=O)o[nH]1', 'melting point', '120 to 125 °C'),
  ('[2H]C([2H])([2H])N(CC(=O)OCCCCCCC)c1nc(=O)o[nH]1', 'melting point', '110 to 115 °C');

Req: Write down melting point measured for item [2H]C([2H])([2H])N(CCO)c1nc(=O)o[nH]1
Resp: 98 to 104 °C
